measurement-target: M-phase inducer phosphatase 1 (Homo sapiens)
Sequence (P30304 whole entry): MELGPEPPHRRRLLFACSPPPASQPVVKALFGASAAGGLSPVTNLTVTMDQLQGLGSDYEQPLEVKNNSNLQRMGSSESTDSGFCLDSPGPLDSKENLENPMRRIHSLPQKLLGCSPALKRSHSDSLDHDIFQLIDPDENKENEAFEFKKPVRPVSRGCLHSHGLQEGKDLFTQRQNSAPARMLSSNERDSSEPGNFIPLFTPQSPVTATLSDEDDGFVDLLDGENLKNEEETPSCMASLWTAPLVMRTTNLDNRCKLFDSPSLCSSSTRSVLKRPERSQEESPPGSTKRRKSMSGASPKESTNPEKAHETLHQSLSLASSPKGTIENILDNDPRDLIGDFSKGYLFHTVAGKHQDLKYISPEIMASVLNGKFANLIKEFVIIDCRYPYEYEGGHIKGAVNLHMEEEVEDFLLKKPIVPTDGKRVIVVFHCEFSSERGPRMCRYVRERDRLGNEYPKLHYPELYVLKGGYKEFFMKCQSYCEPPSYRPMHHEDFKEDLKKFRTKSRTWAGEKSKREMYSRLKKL
pIC50: −log10 of the molar value.
// merged dataset of pIC50 values, system = M-phase inducer phosphatase 1 (Homo sapiens), multiple refs
Give yes (1) when the value for pIC50 is at least 5. Give no (0) when it is less.

{"columns": ["molecule", "category"],
 "data": [
  ["CCCCCCCCCCCCN1C(=O)/C(=C/C(=O)O)c2ccccc21", "yes (1)"],
  ["CCCCCCCCN1C(=O)/C(=C\\C(=O)O)c2ccccc21", "no (0)"],
  ["CC(C)CCC[C@@H](C)[C@H]1CCC2[C@@H](O)CCC[C@@]21C (stereo partly specified)", "yes (1)"],
  ["CC1=CC[C@H]2C(C)(C)CCC[C@]2(C)[C@H]1CC(Cc1ccccc1)OS(=O)(=O)O (stereo partly specified)", "no (0)"],
  ["COC(=O)CC1CCC[C@@]2(C)C1CC[C@@H]2[C@H](C)CCCC(C)C (stereo partly specified)", "no (0)"],
  ["CC(C)CCC[C@@H](C)[C@H]1CCC2C(CC(=O)O)CCC[C@@]21C (stereo partly specified)", "no (0)"],
  ["C=C(CCCCC#N)[C@H]1CC[C@]2(C)[C@@H]([C@H](C)CCCC(C)C)CC[C@H]2[C@@H]1CC(=O)O", "yes (1)"],
  ["CCCCCCCCCCCCN1C(=O)/C(=C/C(=O)OC)c2ccccc21", "no (0)"],
  ["CC1=CC[C@H]2C(C)(C)CCC[C@]2(C)[C@H]1CC(O)Cc1ccccc1 (stereo partly specified)", "no (0)"],
  ["CO[C@H]1O[C@H](Cn2cc(COC[C@H](NC(=O)OC(C)(C)C)C(=O)O)nn2)[C@@H](OCc2ccccc2)[C@H](OCc2ccccc2)[C@H]1OCc1ccccc1", "no (0)"],
  ["CC(C)CCC[C@@H](C)[C@H]1CCC2[C@](C)(CCOP(=O)(O)O)CCC[C@@]21C (stereo partly specified)", "yes (1)"],
  ["CCCCCCCCCCCCCCCCOCCOP(=O)([O-])OCC[N+]1(C)CCOCC1", "no (0)"],
  ["O=C1N=C(Nc2cccc(Cl)c2Cl)S/C1=C\\C=C\\c1ccco1", "yes (1)"],
  ["COc1ccc(-n2nnc(SCC(=O)c3ccc(O)c(O)c3)n2)cc1", "yes (1)"],
  ["Nc1cccc(Nc2nc3ccccc3nc2NS(=O)(=O)c2ccc(Cl)cc2)c1", "yes (1)"],
  ["COC(=O)[C@@H]1[C@H]2C[C@H]3c4[nH]c5ccccc5c4CCN3C[C@@H]2CC[C@@H]1O", "no (0)"],
  ["CCCCC(C[C@H]1C(C)=CC[C@H]2C(C)(C)CCC[C@]12C)OS(=O)(=O)O (stereo in doubt; 19)", "no (0)"]
]}
